Source: PubChem BioAssay (NCI)

# protocol summary: NCI Yeast Anticancer Drug Screen. Data for the rad14 strain (AID 159)
# test parameters: S. cerevisiae rad14 strain growth inhibition; at 33.0 µM; hits give high values
Compounds without any hit were thinned out: in the full panel of roughly 79,000, 15% have a hit.
growth inhibition vs 20%: at or above is YES, below is NO.

compound	label value
COC1C=COC2(C)Oc3c(C)c(O)c4c(c3C2=O)/C(=N/C2CCC(O)OC2C)C=C(NC(=O)/C(C)=C\C(=O)C2CC2C(O)C(C)C(O)C(C)C(OC(C)=O)C1C)C4=O (centres undefined)	NO
CC[C@@]1(O)C(=O)OCc2c1cc1n(c2=O)Cc2cc3c(N)cccc3nc2-1	NO
CC(=O)Nc1ccc(SC(C)=O)cc1	YES
O=C(NCCCCNCCCNC(=O)c1cc(-c2ccccc2)nc2ccccc12)c1cc(-c2ccccc2)nc2ccccc12	YES
CC[n+]1ccc2c(C)c3[nH]c4ccc(O)cc4c3c(C)c2c1	NO
CC(/C=C/c1ccc2c(c1)OCO2)[N+](=O)[O-] (centres undefined)	YES
c1ccc2c(c1)C(=NCCCN1CCCCCC1)c1cccn1-2	NO
NC(=NCc1ccccc1)N/N=C\c1ccnc2ccccc12	YES
C[C@@H]1C[C@H]2[C@@H]3CCC4=CC(=O)C=C[C@]4(C)[C@@]3(Cl)[C@@H](Cl)C[C@]2(C)[C@@]1(O)C(=O)COP(=O)(O)O	NO
